# SYSTEM NAME: Androgen Receptor (AR) (Homo sapiens, UniProt P10275, T878A)
# Construct: cell based immuno-fluorescence assay using the LNCaP prostate epithelial cell line; endogenous in cells; host or cells: LNCaP clone FGC (ATCC CRL-1740)
# Sequence (P10275 1-920 T878A): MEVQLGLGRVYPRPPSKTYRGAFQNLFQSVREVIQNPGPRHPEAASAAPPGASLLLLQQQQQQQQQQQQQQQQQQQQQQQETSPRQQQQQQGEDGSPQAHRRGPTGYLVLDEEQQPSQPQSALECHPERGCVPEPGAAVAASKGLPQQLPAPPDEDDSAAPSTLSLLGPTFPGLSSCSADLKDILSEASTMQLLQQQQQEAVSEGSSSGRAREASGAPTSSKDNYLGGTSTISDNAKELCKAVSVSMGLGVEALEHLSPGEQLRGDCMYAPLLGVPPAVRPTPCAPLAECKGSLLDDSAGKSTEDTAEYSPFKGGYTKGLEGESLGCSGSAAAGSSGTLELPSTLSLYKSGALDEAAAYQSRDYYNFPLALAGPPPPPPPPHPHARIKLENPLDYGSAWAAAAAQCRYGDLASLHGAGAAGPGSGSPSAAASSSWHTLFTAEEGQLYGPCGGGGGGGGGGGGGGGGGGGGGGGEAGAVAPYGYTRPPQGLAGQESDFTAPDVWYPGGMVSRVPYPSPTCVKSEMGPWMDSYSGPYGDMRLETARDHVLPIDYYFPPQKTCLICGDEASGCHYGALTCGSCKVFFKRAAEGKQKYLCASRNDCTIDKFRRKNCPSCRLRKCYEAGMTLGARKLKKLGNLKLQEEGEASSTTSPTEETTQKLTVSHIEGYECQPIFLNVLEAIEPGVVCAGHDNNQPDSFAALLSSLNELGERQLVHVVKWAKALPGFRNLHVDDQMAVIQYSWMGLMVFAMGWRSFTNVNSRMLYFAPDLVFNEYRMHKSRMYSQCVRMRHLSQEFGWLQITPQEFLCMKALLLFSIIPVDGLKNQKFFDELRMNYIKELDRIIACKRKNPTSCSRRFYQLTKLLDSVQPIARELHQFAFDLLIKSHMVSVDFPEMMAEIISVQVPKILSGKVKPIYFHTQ
# METHOD NOTES: LNCaP Androgen Receptor Down-regulation Cell Assay (immunofluorescence end point)
# Assay type: cell-based
# CONDITIONS USED: LNCaP prostate carcinoma cells, compound incubation 20-22 hours, 50% reduction of the AR signal; read-out: Androgen Receptor Down-regulation Assay (a) IC50/μM
MEASUREMENT KIND: DC50 (µM)
Just the number in µM, nothing appended.

C[C@H]1CN(Cc2ccc(F)c(C#N)c2)CCN1c1ccc2nnc(C(F)(F)F)n2n1 [Example 598] ... 4.2
CC(C)Oc1ccc(CN2CCN(c3ccc4nnc(C(F)(F)F)n4n3)CC2)cn1 [Example 148] ... 3.4
FC(F)(F)c1ccc(OC2CCN(c3ccc4nnc(C(F)(F)F)n4n3)CC2)nc1 [Example 719] ... 3.5

# input Entry Fc1cccc(CN2CCN(c3ccc4nnc(C(F)(F)F)n4n3)CC2)c1Cl [Example 768] : reported DC50 = ?
# output 4.7

# input Entry O=S(=O)(c1ccc(F)cc1)N1CC2CN(c3ccc4nnc(C(F)(F)F)n4n3)CC2C1 (centres unmarked) [Example 453] : reported DC50 = ?
# output 5.7

# input Entry CS(=O)(=O)c1cc(F)cc(CN2CCN(c3ccc4nnc(C(F)(F)F)n4n3)CC2)c1 [Example 778] : reported DC50 = ?
# output 2.6
